tested on: Sprague-Dawley rats; experiment: Pharmacological effect and adverse reactions under the equivalent dose (2ED50), Group C compounds; format: in vivo; conditions: equivalent dose (2ED50), number of rats of n = 8
Each entry below lists one item and its recorded Adverse reaction: Tongue stretching value.
measured quantity: Adverse reaction: Tongue stretching

{"columns": ["given smiles", "measured quantity", "observed result"],
 "data": [
  ["C#CCOCC(=O)c1cncn1[C@H](C)c1ccccc1", "Adverse reaction: Tongue stretching", 1],
  ["C[C@H](c1ccccc1)n1cnc(F)c1C(=O)COCCC1CCC1", "Adverse reaction: Tongue stretching", 0],
  ["CCOCC(=O)c1cncn1[C@H](C)c1ccccc1", "Adverse reaction: Tongue stretching", 1],
  ["C[C@H](c1ccccc1)n1cncc1C(=O)COCCC1CCC1", "Adverse reaction: Tongue stretching", 0],
  ["C[C@H](c1ccccc1)n1cncc1C(=O)COC(C)(C)C", "Adverse reaction: Tongue stretching", 0],
  ["CC(=O)COCC(=O)c1cncn1[C@H](C)c1ccccc1", "Adverse reaction: Tongue stretching", 0],
  ["CCC(CC)OCC(=O)c1cncn1[C@H](C)c1ccccc1", "Adverse reaction: Tongue stretching", 0],
  ["COCC(=O)c1c(F)ncn1[C@H](C)c1ccccc1", "Adverse reaction: Tongue stretching", 0],
  ["CC#CCOCC(=O)c1cncn1[C@H](C)c1ccccc1", "Adverse reaction: Tongue stretching", 2],
  ["CCC(CC)OCC(=O)c1c(F)ncn1[C@H](C)c1ccccc1", "Adverse reaction: Tongue stretching", 1]
]}
